Task for the reader: assign each of the following compounds its reported log10 of Ki in nM.
Biological target: CA IX (Homo sapiens, UniProt Q16790)
Experiment: biochemical
Details: experimental value used for the QSPR model, library compounds (IDs A…, B…); equals log10 of Ki in nM
Give bare numbers.

smiles-data | measured-endpoint | observed-result
O=NCc1c(O)ccc(-c2ccc(O)cc2)c1Cl | log10 of Ki in nM | 3.780

// input: 8 compounds below; output: log10 of Ki in nM for each
1. NS(=O)(=O)c1cc(-c2cnc(C3CC3)o2)cs1
2. CC(C)(F)CNS(=O)(=O)c1ccc(N)cc1
3. Cc1c(C(=O)NCCN(C)C)cc(-c2ccc(-c3ccccc3)cc2)n1-c1ccc(S(N)(=O)=O)cc1
4. Cc1cc(C)c(S(=O)(=O)Nc2ccc(C3C4=C(CC(C)(C)CC4=O)N(c4ccc(S(N)(=O)=O)cc4)C4=C3C(=O)CC(C)(C)C4)cc2)c(C)c1
5. NS(=O)(=O)c1ccc(OCCN2CCOCC2)cc1
6. CCCCC(=O)OC[C@H]1O[C@@H](n2cc(-c3ccc(S(N)(=O)=O)cc3)nn2)[C@H](OC(=O)CCCC)[C@@H](OC(=O)CCCC)[C@@H]1OC(=O)CCCC
7. Cc1ccc(NC(=S)NNC(=O)c2ccccc2O)cc1
8. Nc1c(Br)cc(S(N)(=O)=O)cc1I

[1.114, 1.919, 1.919, 1.954, 1.100, 2.978, 3.095, 1.934]

// input: 6 compounds below; output: log10 of Ki in nM for each
1. CC1(C)CC(=O)C2=C(C1)N(c1ccc(S(N)(=O)=O)cc1)C1=C(C(=O)CC(C)(C)C1)C2c1ccc([N+](=O)[O-])cc1
2. N#Cc1c(-c2ccc(Br)cc2)cn(-c2ccc(S(N)(=O)=O)cc2)c1NC(=S)Nc1ccc(Br)cc1
3. Oc1ccccc1/C=N/CCCC/N=C/c1ccccc1O
4. Cc1ccc(-n2c(=S)[nH]c3c(c(-c4ccc(Br)cc4)cn3-c3ccc(S(N)(=O)=O)cc3)c2=N)cc1
5. NS(=O)(=O)c1ccc(NC2=NC(=O)/C(=N/Nc3ccc(Cl)cc3)S2)cc1
6. O=S1(=O)C=Cc2cc(-n3cc(C4CC4)nn3)ccc2O1

1. 3.009
2. 1.960
3. 4.021
4. 2.210
5. 0.863
6. 1.782

// input: 3 compounds below; output: log10 of Ki in nM for each
1. C#CCOc1ccc(S(N)(=O)=O)cc1
2. NS(=O)(=O)c1ccc(Nc2nc(Nc3ccccc3)nc(N3CCOCC3)n2)cc1
3. NS(=O)(=O)c1cccc(-c2cn([C@@H]3O[C@H](CO)[C@@H](O)[C@H](O)[C@H]3O)nn2)c1

1: 0.914; 2: 1.303; 3: 1.893
